# Measured target: Bcl-2 protein (histag-Bcl-2, UniProtKB P10415) (Homo sapiens (Human), UniProt P10415)
# Sequence (P10415 whole entry): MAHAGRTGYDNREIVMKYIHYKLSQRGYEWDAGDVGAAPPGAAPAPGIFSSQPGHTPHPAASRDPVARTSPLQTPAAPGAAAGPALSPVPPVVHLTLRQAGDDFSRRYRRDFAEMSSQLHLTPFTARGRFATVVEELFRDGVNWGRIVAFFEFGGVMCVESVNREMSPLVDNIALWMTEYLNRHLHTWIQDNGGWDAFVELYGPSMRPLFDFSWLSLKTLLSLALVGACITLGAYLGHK
# Test description: Inhibition of Bcl-2 by the fluorescence polarisation technique
# Type: binding
# Condition info: incubation for 2 hours, read-out: IC50 (nM) Bcl-2 FP
Where a name gives a salt, the structure may show the parent alone.
Endpoint label: IC50 (nM)

1. Cc1c(C(=O)N(c2ccccc2)c2cnc3c(ccn3C)c2)cc(-c2cc3c(cc2C(=O)N2Cc4ccccc4C[C@H]2CN2CCOCC2)OCO3)n1C [Example 65, hydrochloride]
2. Cc1c(C(=O)N(c2ccc(O)cc2)c2cccc(F)c2)cc(-c2cc3c(cc2C(=O)N2Cc4ccccc4C[C@H]2C)OCO3)n1C [Example 41]
Query :: Parameter check: reported IC50 is higher for which label, 1 or 2 ? Write down the label of the entry you select.
Result :: 1

* * *

# Measured target: Bcl-2 protein (histag-Bcl-2, UniProtKB P10415) (Homo sapiens (Human), UniProt P10415)
# Test description: Inhibition of Bcl-2 by the fluorescence polarisation technique
# Type: binding
# Condition info: incubation for 2 hours, read-out: IC50 (nM) Bcl-2 FP
Where a name gives a salt, the structure may show the parent alone.
Endpoint label: IC50 (nM)

For orientation, consider the following solved cases.
| Molecule | Unit of measurement | IC50 |
| --- | --- | --- |
| Cc1ccc(OC(=O)NCc2ccc(-c3cc(C(=O)N(C)c4ccc(O)cc4)c(C)n3C)c(C(=O)N3Cc4ccccc4C[C@H]3C)c2)cc1 | nM | 16.9 |
| Cc1c(C(=O)N(c2ccc(O)cc2)c2cnc3c(c2)CCN3C)cc(-c2cc(Cl)ccc2C(=O)N2Cc3ccccc3C[C@H]2CCCN2CCOCC2)n1C | nM | 2.5 |

I. Cc1c(C(=O)N(c2ccc(O)cc2)c2cnc3c(ccn3C)c2)cc(-c2cc(Cl)ccc2C(=O)N2Cc3ccccc3C[C@H]2C)n1C
II. Cc1c(C(=O)N(c2ccc(O)cc2)c2cnc3c(ccn3C)c2)cc(-c2ccccc2C(=O)N2Cc3ccccc3C[C@H]2CN2CCOCC2)n1C [Example 409, hydrochloride]
III. Cc1c(C(=O)N(c2cnc3c(ccn3C)c2)c2ccc(O)cn2)cc(-c2cc(Cl)ccc2C(=O)N2Cc3ccccc3C[C@H]2CN2CCOCC2)n1C [Example 464, dihydrochloride]
IV. Cc1c(C(=O)N(c2ccc(O)cc2)c2cnc3c(c2)CCN3C)cc(-c2cc(F)ccc2C(=O)N2Cc3ccccc3C[C@H]2CN2CCOCC2)n1C [Example 434, hydrochloride]
Query :: Task for the reader: rank each entry by its IC50, from the minimum upward. To answer, arrange all of the labels according to the requested order.
Result :: IV, I, II, III
(IV: 3.5 nM, I: 5.1 nM, II: 12.2 nM, III: 36.6 nM)

* * *

# Measured target: Bcl-2 protein (histag-Bcl-2, UniProtKB P10415) (Homo sapiens (Human), UniProt P10415)
# Test description: Inhibition of Bcl-2 by the fluorescence polarisation technique
# Assay type: binding
# Condition info: incubation for 2 hours, read-out: IC50 (nM) Bcl-2 FP
Where a name gives a salt, the structure may show the parent alone.
Endpoint label: IC50 (nM)

Below are worked cases with known answers.
| Compound | Endpoint label | Reported |
| --- | --- | --- |
| Cc1c(C(=O)N(c2ccncc2)c2ccc(O)cc2)cc(-c2cc3c(cc2C(=O)N2Cc4ccccc4C[C@H]2CN2CCOCC2)OCO3)n1C [Example 73, dihydrochloride] | IC50 | 8 |
| Cc1c(C(=O)N(C)c2ccc(O)cc2)cc(-c2cc(CCNC(=O)Nc3ccccc3)ccc2C(=O)N2Cc3ccccc3C[C@H]2C)n1C [Example 58] | IC50 | 133 |
| Cc1c(C(=O)N(C)c2ccc(O)cc2)cc(-c2ccc(CNC(=O)NCc3ccccc3)cc2C(=O)N2Cc3ccccc3C[C@H]2C)n1C [Example 37] | IC50 | 60.4 |
| CCn1cc(C(=O)N(c2ccc(O)cc2)c2ccc3c(ccn3C)c2)cc1-c1cc(Cl)ccc1C(=O)N1Cc2ccccc2C[C@H]1CN1CCN(C)CC1 [Example 6] | IC50 | 25.2 |

P. Cc1c(N(C(=O)c2cc(-c3cc(F)ccc3C(=O)N3Cc4ccccc4C[C@H]3CN3CCOCC3)n(C)c2C)c2ccc(O)cc2)cnn1C [Example 453, hydrochloride]
Q. Cc1c(C(=O)N(c2ccc(O)cc2)c2cnn(C)c2)cc(-c2ccc(F)cc2C(=O)N2Cc3ccccc3C[C@H]2CN2CCOCC2)n1C [Example 447, hydrochloride]
Query :: Which record would sort first by descending IC50, P or Q ? # reply format: chosen label
Result :: Q
(Q: 20 nM, P: 6.9 nM)

* * *

# Measured target: Bcl-2 protein (histag-Bcl-2, UniProtKB P10415) (Homo sapiens (Human), UniProt P10415)
# Test description: Inhibition of Bcl-2 by the fluorescence polarisation technique
# Type: binding
# Condition info: incubation for 2 hours, read-out: IC50 (nM) Bcl-2 FP
Counter-ions that a name gives are not always drawn.
Endpoint label: IC50 (nM)

| Compound | Endpoint label | Reported |
| --- | --- | --- |
| Cc1c(C(=O)N(c2ccc(O)cc2)c2cnc3c(ccn3C)c2)cc(-c2cc3c(cc2C(=O)N2Cc4ccccc4C[C@H]2CN2CCN(C)CC2)OCO3)n1C [Example 69, hydrochloride] | IC50 | 5.3 |
| COc1cc(C(=O)N2Cc3ccccc3C[C@H]2CN2CCOCC2)c(-c2cc(C(=O)N(c3ccc(O)cc3)c3cc(C#N)n(C)c3C)c(C)n2C)cc1F [Example 440, hydrochloride] | IC50 | 2.6 |
| COc1ccc(-c2cc(C(=O)N(c3ccc(O)cc3)c3cc(C#N)n(C)c3C)c(C)n2C)c(C(=O)N2Cc3ccccc3C[C@H]2CN2CCOCC2)c1 [Example 417, hydrochloride] | IC50 | 3 |
| COc1ncc(N(C(=O)c2cc(-c3cc(F)c(OC)cc3C(=O)N3Cc4ccccc4C[C@H]3CN3CCOCC3)n(C)c2C)c2ccc(O)cc2)cn1 [Example 439, hydrochloride] | IC50 | 6.1 |

I. COc1ccc(N(C(=O)c2cc(-c3cc(F)ccc3C(=O)N3Cc4ccccc4C[C@H]3CN3CCOCC3)n(C)c2C)c2ccc(O)cc2)cc1C#N [Example 427, hydrochloride]
II. Cc1c(C(=O)N(c2ccncc2)c2ccc(O)cc2)cc(-c2cc(Cl)ccc2C(=O)N2Cc3ccccc3C[C@H]2C)n1C [Example 28, hydrochloride]
III. CCNC(=O)NCc1ccc(C(=O)N2Cc3ccccc3C[C@H]2C)c(-c2cc(C(=O)N(C)c3ccc(O)cc3)c(C)n2C)c1
IV. Cc1c(C(=O)N(c2ccccc2)c2cnc3c(c2)CCN3C)cc(-c2cc(Cl)ccc2C(=O)N2Cc3ccccc3C[C@H]2CN2CCOCC2)n1C
Query :: Give the ascending ranking of the items by reported IC50. Form entry: ranked labels (order as requested).
Result :: I, II, IV, III
(I: 2.2 nM, II: 7.5 nM, IV: 18.1 nM, III: 28.9 nM)

A. Cc1c(C(=O)N(c2ccc(O)cc2)c2ccc(F)c(C#N)c2)cc(-c2cc(Cl)ccc2C(=O)N2Cc3ccccc3C[C@H]2CN2CCOCC2)n1C [Example 401, hydrochloride]
B. Cc1c(N(C(=O)c2cc(-c3cc(Cl)ccc3C(=O)N3Cc4ccccc4C[C@H]3CN3CCOCC3)n(C)c2C)c2ccccc2)cc(C#N)n1C [Example 441, hydrochloride]
C. Cc1c(C(=O)N(C)c2ccc(O)cc2)cc(-c2cc(CNC(=O)COc3ccccc3)ccc2C(=O)N2Cc3ccccc3C[C@H]2C)n1C
Query :: Hey, quick one: sort these by IC50, low to high? Write the labels in rank order as requested.
Result :: B, A, C

a. Cc1c(C(=O)N(c2ccccc2)c2ccc(O)cc2)cc(-c2cc3c(cc2C(=O)N2Cc4ccccc4C[C@H]2C)OCO3)n1CCN(C)C [Example 98, hydrochloride]
b. Cc1c(C(=O)N(c2ccc(O)cc2)c2cnn(C)c2)cc(-c2cc(Cl)ccc2C(=O)N2Cc3ccccc3C[C@H]2CN2CC3(CCO3)C2)n1C
c. Cc1c(N(C(=O)c2cc(-c3cc(Cl)ccc3C(=O)N3Cc4ccccc4C[C@H]3CCCN3CCOCC3)n(C)c2C)c2ccc(O)cc2)cc(C#N)n1C [Example 412, hydrochloride]
d. Cc1c(C(=O)N(c2ccc(O)cc2)c2cc3ccn(C)c3cn2)cc(-c2cc(Cl)ccc2C(=O)N2Cc3ccccc3C[C@H]2CN2CCOCC2)n1C [Example 389, hydrochloride]
e. CN1CCN(C[C@@H]2Cc3ccccc3CN2C(=O)c2ccc(Cl)cc2-c2cc(C(=O)N(c3ccc(O)cc3)c3ccc4c(ccn4C)c3)cn2C)CC1 [Example 5, hydrochloride]
Query :: Place the items in sequence of falling IC50. Your answer should be the labels, listed in the requested order.
Result :: e, d, a, b, c
(e: 21.2 nM, d: 14.7 nM, a: 7.6 nM, b: 4.6 nM, c: 3.1 nM)

a. Cc1c(C(=O)N(c2ccc(O)cc2)c2cc(C#N)ccn2)cc(-c2cc(Cl)ccc2C(=O)N2Cc3ccccc3C[C@H]2CN2CCOCC2)n1C [Example 110, hydrochloride]
b. Cc1c(C(=O)N(c2ccc(O)cc2)c2ccc3c(cnn3C)c2)cc(-c2cc(F)ccc2C(=O)N2Cc3ccccc3C[C@H]2CN2CCOCC2)n1C [Example 12, hydrochloride]
Query :: Response body: label of entry with the larger IC50; valid values a , b . Select an item and report its label.
Result :: a

P. Cc1c(C(=O)N(c2ccc(O)cc2)c2csc(C#N)c2)cc(-c2cc(Cl)ccc2C(=O)N2Cc3ccccc3C[C@H]2CN2CCOCC2)n1C [Example 442, hydrochloride]
Q. Cc1c(C(=O)N(c2ccncc2)c2ccc(O)cc2)cc(-c2cc(F)ccc2C(=O)N2Cc3ccccc3C[C@H]2CN2CCOCC2)n1C [Example 384, hydrochloride]
R. Cc1c(C(=O)N(c2ccc(O)c(F)c2)c2cnn(C)c2)cc(-c2cc3c(cc2C(=O)N2Cc4ccccc4C[C@H]2CN2CCOCC2)OCO3)n1C [Example 396, hydrochloride]
Query :: Sort (3 compounds) by IC50: min first. Output spec: a listing of the labels in the requested order.
Result :: P, Q, R
(P: 3 nM, Q: 9.7 nM, R: 15.7 nM)
